Where do these numbers come from? They come from patent US20230372526A1.

Assay: Hydrolysis of Pertuzumab conjugated samples obtained using different small molecule compounds, hydrolysis percentage by Native MS
Type: physicochemical
Conditions: hydrolysis system B: 50 mM sodium phosphate buffer+3% arginine, pH 7.8; 3 h
Procedure: The analysis conditions were as follows: • Capillary activation: the capillary was rinsed with 0.1 mol/L sodium hydroxide for 10 min, 0.1 mol/L hydrochloric acid for 5 min and water for injection for 2 min respectively at 20 psi; and then rinsed with SDS-MW-Gel Buffer for 10 min at 70 psi; afterwards, pre-separation was performed for 10 min at 20 psi, at a column temperature of 25° C. and a voltage of −15 kv. […]
reportedProperty: 3 h hydrolysis percentage

- CCC(C)[C@@H]([C@@H](CC(=O)N1CCC[C@H]1[C@H](OC)[C@@H](C)C(=O)N[C@H](C)[C@@H](O)c1ccccc1)OC)N(C)C(=O)[C@@H](NC(=O)[C@H](C(C)C)N(C)C(=O)OCc1ccc(NC(=O)[C@H](CCCNC(N)=O)NC(=O)[C@@H](NC(=O)COCCOCCOCCOc2ccc(N3C(=O)C(Sc4ccc(C(=O)N5CCOCC5)cc4)=C(Sc4ccc(C(=O)N5CCOCC5)cc4)C3=O)cc2)C(C)C)cc1)C(C)C (stereo partly shown) [C-1]: 99.87%
